Reference for the values: patent US11566029B2

Quick reference: Selectivity CDK1/CDK7 of the listed items.
- assayTarget: CDK7/CycH/MAT1 (Homo sapiens)
- Construct: purchased ProQinase GmbH
- Sequence (P50613 whole entry): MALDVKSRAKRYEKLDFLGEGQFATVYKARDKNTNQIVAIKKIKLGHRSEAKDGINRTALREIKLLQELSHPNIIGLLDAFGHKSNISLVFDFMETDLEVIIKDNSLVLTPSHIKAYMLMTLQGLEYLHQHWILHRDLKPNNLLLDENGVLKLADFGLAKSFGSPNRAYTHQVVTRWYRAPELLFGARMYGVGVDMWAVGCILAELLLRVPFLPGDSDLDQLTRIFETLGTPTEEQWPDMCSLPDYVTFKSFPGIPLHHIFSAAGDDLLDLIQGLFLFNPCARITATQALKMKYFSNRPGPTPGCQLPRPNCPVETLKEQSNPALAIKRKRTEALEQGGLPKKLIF
- Sequence (P51946 whole entry partner): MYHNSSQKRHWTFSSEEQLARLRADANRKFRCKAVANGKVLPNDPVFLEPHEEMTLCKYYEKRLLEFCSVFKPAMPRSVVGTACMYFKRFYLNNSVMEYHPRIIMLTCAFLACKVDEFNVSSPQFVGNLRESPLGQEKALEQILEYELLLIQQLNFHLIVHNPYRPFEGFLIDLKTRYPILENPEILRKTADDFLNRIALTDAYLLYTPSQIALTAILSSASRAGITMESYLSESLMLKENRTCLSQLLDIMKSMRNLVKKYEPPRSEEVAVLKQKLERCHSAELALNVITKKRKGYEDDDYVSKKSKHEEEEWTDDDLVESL
- Sequence (P51948 whole entry partner): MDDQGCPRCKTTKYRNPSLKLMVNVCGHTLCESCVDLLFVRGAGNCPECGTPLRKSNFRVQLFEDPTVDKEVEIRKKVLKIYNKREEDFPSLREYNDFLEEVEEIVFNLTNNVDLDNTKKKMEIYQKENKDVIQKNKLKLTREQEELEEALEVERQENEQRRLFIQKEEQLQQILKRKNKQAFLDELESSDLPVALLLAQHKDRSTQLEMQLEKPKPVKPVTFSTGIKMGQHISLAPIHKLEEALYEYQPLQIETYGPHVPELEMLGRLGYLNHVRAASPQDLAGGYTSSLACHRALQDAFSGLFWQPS
- experimentSummary: In vitro kinase assay (PKLight luciferase ATP readout), CDK7
- Assay type: biochemical
- assayConditions: ratio of CDK1 IC50 to CDK7 IC50
Numeric answer only, unit fold assumed.

molecule="CC(C)c1cnn2c(NCc3ccc(C(F)(F)F)cc3)cc(N[C@H]3CNC[C@H]3O)nc12 [PPDA-017]" assaytarget="CDK7/CycH/MAT1 (Homo sapiens)" recordednumber=0.7
molecule="CC(C)c1cnn2c(NCc3ccccc3)cc(N[C@@H]3CNCC[C@H]3O)nc12 [PPDA-022]" assaytarget="CDK7/CycH/MAT1 (Homo sapiens)" recordednumber=26
molecule="CC(C)c1cnn2c(NCc3ccccc3)cc(NC3CNCC[C@]3(O)CO)nc12 (stereo partly shown) [PPDA-025]" assaytarget="CDK7/CycH/MAT1 (Homo sapiens)" recordednumber=3.7

Task: Consider the molecule shown here: CC(C)c1cnn2c(Nc3csc4ccccc34)cc(NC[C@H]3CCNC[C@@H]3O)nc12 [PPDA-008] What is its recorded Selectivity CDK1/CDK7?
Result: 25
